The reported numbers originate from patent CN1649900A.

- Target Desc: Y1 scFv (human single-chain Fv antibody fragment Y1)
- Sequence (scFv, as listed by the source): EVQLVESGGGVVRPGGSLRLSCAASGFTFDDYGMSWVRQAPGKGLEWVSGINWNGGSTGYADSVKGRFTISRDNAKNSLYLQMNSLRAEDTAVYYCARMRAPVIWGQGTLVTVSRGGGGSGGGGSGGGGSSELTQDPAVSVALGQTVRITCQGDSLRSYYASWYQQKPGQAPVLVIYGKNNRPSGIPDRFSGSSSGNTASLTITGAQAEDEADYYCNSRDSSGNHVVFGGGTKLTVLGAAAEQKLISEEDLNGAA
- Assay Protocol: competition FACS on washed platelets; peptide 200μM
Where no end group is shown, it is not given here. [ ]: non-standard residue; d: D form. sY = N[C@@H](Cc1ccc(OS(=O)(=O)O)cc1)C(=O)O
Assay Readout: residual binding of Y1 (% of baseline, Geo mean) (%)

Below, 2 binders whose answers are already recorded.
• REEGRQHFFLLEGRSSYS [EGR negative control peptide] = 119
• GDEGDTDL[sY]D[sY][sY]PEEDTE [P-1-S, sulfated synthetic peptide of GPIbα residues 268-285] = 5

1: TDL[sY]D[sY][sY]PEEDTE [P-2-S, sulfated synthetic peptide of GPIbα residues 273-285]
2: GDEGDTDL[sY]D[sY][sY]P [P-3-S, sulfated synthetic peptide of GPIbα residues 268-280]
Lower value of residual binding of Y1 (% of baseline, Geo mean) belongs to which: 1 or 2 ? Which one? Tell me its label. 1
(1: 7%, 2: 26%)
